testSummary: in vitro
Type: cell-based
conditionParameters: African green monkey, CC50

{"columns": ["molecule", "CC50 at 3 days"],
 "data": [
  ["COc1cc(NC(C(=O)N2CCc3ccc(C(F)(F)F)cc32)c2ccc(Cl)cc2OC)cc(OCCCC(=O)O)c1 (single isomer, unassigned)", "> 2.5 µM"]
]}

---

pEC50 values, listed per item
Test system: DENV-1 strain TC974#666
testSummary: Tetravalent RT-qPCR assay, serotype 1
Assay type: cell-based
conditionParameters: Dengue virus, DENV1, Vero, 72 h
pEC50: −log10 of the molar value.

{"columns": ["compound", "pEC50"],
 "data": [
  ["COc1cc(NC(C(=O)N2CCc3cc(OC)c(OC(F)(F)F)cc32)c2ccc(Cl)cc2)cc(OCCCC(=O)O)c1 (single isomer, unassigned) [Compound 12B]", 9.17],
  ["COc1cc(NC(C(=O)N2CCc3ccc(C(F)(F)F)cc32)c2ccc(Cl)cc2F)cc(OCCCC(=O)O)c1 (single isomer, unassigned)", 9.66],
  ["COc1cc(NC(C(=O)N2CCc3ccc(C(F)(F)F)cc32)c2ccc(Cl)cc2)cc(OCCCC(=O)O)c1 (single isomer, unassigned)", 9.74]
]}

Values were extracted from patent US10689340B2.
